TARGET_SYSTEM: Thyroid hormone receptor beta (Homo sapiens)
EXPERIMENT_NOTES: qHTS assay for small molecule antagonists of thyroid hormone receptor beta signaling (AID 588547);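 further: cells stimulated with 0.4 nM T3 agonist during compound exposure; on the % scale 0 is the no-effect control and ±100 the full control effect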
PARTICULARS: TR-UAS-bla HEK293, beta-lactamase ratio, antagonist mode, 18 h
Records with an inconclusive call do not appear. The source made the active and inactive calls. The call rests on the fitted dose curve; in most records, active means well fitted inhibition curve with a large enough effect in the signal ratio, with a control signal flat (not every such curve was filed as active); inconclusive means small, poorly fitted or top-dose-only effect, or effect the other way, or a change in a side signal; inactive means flat fitted curve, though single readings scatter; the % refers to the signal ratio.
activity change % (negative = inhibition) by entry:

Sample records with activity change % (negative = inhibition):
> print(dat)
                                   compound                 val
1                               Oc1ccccc1Cl   -7.68% (inactive)
2          CC(C)COC(=O)c1ccccc1C(=O)OCC(C)C    9.26% (inactive)
3               Oc1c(Cl)c(Cl)c(Cl)c(Cl)c1Cl   -4.36% (inactive)
4  C[C@H]1O[C@H](OC2[C@@H](O)[C@@H](O)C(O)[C@H](O)[C@H]2O)[C@@H](N)C[C@@H]1N=C(N)C(=O)O (stereo partly drawn)    1.51% (inactive)
5                        Cc1ccc(C)c2ccccc12  -0.662% (inactive)
6                 c1ccc(Nc2ccc3ccccc3c2)cc1   -6.28% (inactive)
7                               O=Cc1ccccc1      12% (inactive)

In the following, a different compound is considered.
Reported activity change % (negative = inhibition) ( `CCCCOP(=O)(O)OCCCC` ) = 3.56% (inactive)

----------
EXPERIMENT_NOTES: qHTS for Inhibitors of the Functional Ribonucleoprotein Complex (vRNP) of Lymphocytic Choriomeningitis Arenaviruses (LCMV): Viability assay - alamar blue signal for LCMV Primary Screen (AID 1347085); further: nearly all actives have a fitted effect of over 80% in size; further: potency means the concentration at half of the fitted maximal effect
PARTICULARS: alamar blue viability counter-screen, LCMV vRNP screen cells; series mostly up to 57.5 µM
Results filed as inconclusive are left out. Active and inactive are the calls of the source. Calls come from the whole dose curve; tested in HEK293 reporter line.
MEASUREMENT_KIND: Potency

Examples from the recorded data:
> print(dat)
                                   compound                 val
1                      O=C1CCCCCCCCCCCCCCO1            inactive
2  COC(=O)C(O)C(O)(CCC(C)C)C(=O)OC1C(OC)=CC23CCCN2CCc2cc4c(cc2C13)OCO4 (stereo not given)            inactive
3  CNC(=O)Nc1ccc(-c2nc(N3CC4CCC(C3)O4)c3cnn(C4CCC5(CC4)OCCO5)c3n2)cc1  0.0153 µM (active)
4  COc1cc2c(c(OC)c1OC)-c1c(cc3c(c1OC)OCO3)[C@@H](OC(C)=O)[C@H](C)[C@H](C)C2            inactive

Noted for C[C@]12CCC3C(C[C@@H](O)[C@H]4C[C@@H](O)CC[C@]34C)C1CC[C@@H]2O (stereo not given in full) : its Potency reads inactive

For reference, reported Potency for COc1cc2c3c(c1OC)-c1cc(O)ccc1CC3NCC2 (stereo not given) stands at inactive

Recorded Potency (compound C=CC(C)(CCC=C(C)C)OC(=O)c1ccccc1 (stereo not given) ): inactive

----------
Test system: C33A
EXPERIMENT_NOTES: Primary qHTS to identify gynecologic anti-cancer compounds using libraries of approved drugs and bioactive compounds (AID 1345084); further: nearly all actives have a fitted effect of over 55% in size; further: potency means the concentration at half of the fitted maximal effect
PARTICULARS: Gynecologic cancer cell panel viability, ATPlite luminescence, 48 h; series mostly up to 57.5 µM
Inconclusive results are not listed. Active and inactive are the calls of the source. The call rests on the fitted dose curve; in most records, active means well fitted cell-killing curve with a large enough effect; inconclusive means small, poorly fitted or top-dose-only effect, or effect the other way; inactive means flat fitted curve, though single readings scatter.
MEASUREMENT_KIND: Potency

MOLECULE	Potency
COC1C(O)C(C)OC(OC2C(CO)O[C@@H](O[C@@H]3CC4CCC5C(CC[C@]6(C)[C@@H](C7=CC(=O)OC7)CC[C@]56O)[C@@]4(C)[C@H](OC(C)=O)C3)C(O)C2O)C1O (some centres not stated)	3.55 µM (active)
C[C@@H]1CCC/C=C/[C@H]2C[C@@H](O)C[C@@H]2[C@@H](O)/C=C/C(=O)O1	0.891 µM (active)
CC[C@H]1C2CC3[C@@H]4N(C)c5ccccc5[C@]45C[C@@H]([C@H]2[C@H]5O)N3[C@H]1O	inactive
CC1=CC2(O)/C=C/C(C)(O)C(O)C(O)/C=C/C(=O)OC23C(=O)NC(CC(C)C)C3C1C (configuration not stated)	inactive
CC12CCC3C(C1)c1c(cc(O)c(C(=O)c4ccccc4)c1OC3(C)C)O2 (configuration not stated)	inactive
C=C1C(=O)O[C@@H]2[C@H]3C(=C)[C@@H](O)C[C@H]3C(=C)C[C@@H](O)[C@@H]12	inactive

Query molecule follows.
Record CC1=CC(=O)[C@@H](O)[C@]2(C)C3[C@@H](O)[C@@H]4OC(=O)[C@@H]([C@H]4C)[C@]3(C)C(=O)[C@H](O)[C@@H]12 (some centres not stated) , field Potency: inactive
